Record set of pIC50 for target or system adenosine A2 receptor (Rattus norvegicus, UniProt P30543).
Remember the convention: pIC50 equals -log10 of concentration in molar.

Here is how some molecules turned out for pIC50.
>>> obs_value("Nc1nc(NCC(c2ccc(Cl)cc2)c2ccc(Cl)cc2)c2ncn([C@@H]3O[C@H](CO)[C@@H](O)[C@H]3O)c2n1")
5.67
>>> obs_value("COC(=O)C(CNc1ncnc2c1ncn2[C@@H]1O[C@H](CO)[C@@H](O)[C@H]1O)(c1ccccc1)c1ccccc1")
5.34
>>> obs_value("CC(CNc1nc(N)nc2c1ncn2[C@@H]1O[C@H](CO)[C@@H](O)[C@H]1O)(c1ccccc1)c1ccccc1")
6.33
>>> obs_value("Nc1nc(NCC(c2ccccc2)c2ccc(F)cc2)c2ncn([C@@H]3O[C@H](CO)[C@@H](O)[C@H]3O)c2n1 (some centres unmarked)")
6.52
>>> obs_value("OC[C@H]1O[C@@H](n2cnc3c(NCCCCC(c4ccccc4)c4ccccc4)ncnc32)[C@H](O)[C@@H]1O")
5.48
>>> obs_value("OC[C@H]1O[C@@H](n2cnc3c(NCC(c4ccccc4)c4ccc(F)cc4)ncnc32)[C@H](O)[C@@H]1O (some centres unmarked)")
7.15

Next:
Looking up Cc1cccc(C(CNc2ncnc3c2ncn3[C@@H]2O[C@H](CO)[C@@H](O)[C@H]2O)c2ccccc2)c1 (some centres unmarked) , I found its pIC50 recorded as 7.77

Data provenance is patent US4657897A.
